Recorded values, source patent US20220144957A1.

Target: T1, human IFNAR1 ECD (human, UniProt P17181 28-436)
T1 construct: extracellular domain; Coated on ELISA plates at 5 ug/ml
T1 sequence (looked up): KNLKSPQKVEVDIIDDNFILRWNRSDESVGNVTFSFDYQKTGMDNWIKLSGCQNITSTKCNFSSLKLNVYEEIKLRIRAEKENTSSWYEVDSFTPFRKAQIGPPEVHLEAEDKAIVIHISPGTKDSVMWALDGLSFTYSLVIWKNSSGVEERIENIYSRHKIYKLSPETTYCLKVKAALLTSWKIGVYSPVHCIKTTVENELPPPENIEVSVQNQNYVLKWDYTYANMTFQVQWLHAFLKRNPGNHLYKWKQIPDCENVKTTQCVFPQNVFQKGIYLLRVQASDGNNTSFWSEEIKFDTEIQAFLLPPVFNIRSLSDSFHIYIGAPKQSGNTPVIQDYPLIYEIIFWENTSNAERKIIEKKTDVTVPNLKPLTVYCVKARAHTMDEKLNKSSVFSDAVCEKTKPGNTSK
Assay: ELISA, plate coated with human IFNAR1 ECD, anti-human IgG Fc-peroxidase, OD450
Each record is given 1 if its reported EC50 is strictly below 3 ng/mL. Records at or above 3 ng/mL are given -1.

Prompt line: Given the entry Hu4-6 (antibody, V domains shown, Humanized 7G4 variant) VH: QVQLVQSGAEVKKPGASVKVSCKASGYTFTSYWMNWVRQAPGQGLEWMGKIDPSDSETHFNQKFRDRVTLTVDKSTSTVYMELSSLRSEDTAVYYCARGGRISFDYDAALDYWGQGTLVTVSS VL: DIQMTQSPSSLSASVGDRVTITCKSSEVIYNRLAWYQQKPGKAPKLLIYGATTLESGVPSRFSGSGSGKDYTLTISSLQPEDFATYYCQQYWNKPFTFGQGTKLEIK , would its reported EC50 be below 3 ng/mL?
Response line: -1

Prompt line: Same thing, different binder: Hu4-16 (antibody, V domains shown, Humanized 7G4 variant) VH: QVQLVQSGAEVKKPGASVKVSCKASGYTFTSYWMNWVRQRPGQGLEWIGKIDPSDSETHFNQKFRDRVTLTVDKSTSTVYMELSSLRSEDTAVYYCARGGRISFDYDAALDYWGQGTLVTVSS VL: DIQMTQSPSSLSASVGDRVTITCKSSEVIYNRLAWYQQKPGNAPKLLISGATTLESGVPSRFSGSGSGKDYTLTISSLQPEDFATYYCQQYWNKPFTFGQGTKLEIK
Response line: -1

Prompt line: Then what about the binder Hu4-15 (antibody, V domains shown, Humanized 7G4 variant) VH: QVQLVQSGAEVKKPGASVKVSCKASGYTFTSYWMNWVRQAPGQGLEWIGKIDPSDSETHFNQKFRDRVTLTVDKSTSTVYMELSSLRSEDTAVYYCARGGRISFDYDAALDYWGQGTLVTVSS VL: DIQMTQSPSSLSASVGDRVTITCKSSEVIYNRLAWYQQKPGNAPKLLISGATTLESGVPSRFSGSGSGKDYTLTISSLQPEDFATYYCQQYWNKPFTFGQGTKLEIK ?
Response line: 1

Prompt line: Consider next the binder Hu4-14 (antibody, V domains shown, Humanized 7G4 variant) VH: QVQLVQSGAEVKKPGASVKVSCKASGYTFTSYWMNWVRQAPGQGLEWMGKIDPSDSETHFNQKFRDRVTLTVDKSTSTVYMELSSLRSEDTAVYYCARGGRISFDYDAALDYWGQGTLVTVSS VL: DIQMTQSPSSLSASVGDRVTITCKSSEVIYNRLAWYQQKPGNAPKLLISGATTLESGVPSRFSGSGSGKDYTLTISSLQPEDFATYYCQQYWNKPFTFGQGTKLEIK in the same way.
Response line: 1

Prompt line: Could you do the same for 7G4 Chimeric (antibody, V domains shown) VH: QVQLQQPGAELVKPGAPVKLSCKASGYTFTSYWMNWVRQRPGRGLEWIGKIDPSDSETHFNQKFRDKATLTVDKSSTTAYIQLSSLTSEDSAVYYCARGGRISFDYDAALDYWGQGTSVTVSS VL: DILMTQSSSSFSVSLGDRVTITCKSSEVIYNRLAWFQQKPGNAPRLLISGATTLESGFPSRFSGSGSGKDYTLSITSLQIEDVSTYYCQQYWNKPFTFGSGTKLEVK , please?
Response line: -1

Prompt line: Now try Hu4-13 (antibody, V domains shown, Humanized 7G4 variant) VH: QVQLVQSGAEVKKPGASVKVSCKASGYTFTSYWMNWVRQAPGQGLEWMGKIDPSDSETHFNQKFRDRVTMTRDTSTSTVYMELSSLRSEDTAVYYCARGGRISFDYDAALDYWGQGTLVTVSS VL: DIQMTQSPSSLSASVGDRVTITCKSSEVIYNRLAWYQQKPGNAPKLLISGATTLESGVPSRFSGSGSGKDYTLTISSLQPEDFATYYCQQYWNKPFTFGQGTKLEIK .
Response line: -1
